So I've got a bunch of compounds here, and I need their MIC values.
Tested on: P. aeruginosa PAO1
Experiment: Broth microdilution MIC, P. aeruginosa PAO1
Assay type: cell-based
Settings: Pseudomonas aeruginosa; P. aeruginosa PAO1, broth microdilution; read-out: MIC P. aeruginosa PAO1

Example compounds with recorded MIC:
| compound | quantity.measured | measured.value |
| --- | --- | --- |
| CS(=O)(=O)NCCN1CCN(C(=O)NC(C(=O)N[C@H]2Cc3cccc(C(=O)O)c3OB2O)c2ccc(O)c(O)c2Cl)C(=O)C1=O (stereo partly drawn) | MIC | 2 to 4 µg/mL |
| O=C(O)c1cccc2c1OB(O)[C@@H](NC(=O)C(NC(=O)N1C[C@H]3CCCN3C(=O)C1=O)c1ccc(O)c(O)c1Cl)C2 (stereo partly drawn) | MIC | 32 to 64 µg/mL |
| NCCN1CCN(C(=O)N[C@@H](C(=O)N[C@H]2Cc3cccc(C(=O)O)c3OB2O)c2ncc(O)cc2F)C(=O)C1=O | MIC | > 128 µg/mL |
| CCN1CCN(C(=O)NC(C(=O)N[C@H]2Cc3ccc(F)c(C(=O)O)c3OB2O)c2cc(O)c(O)cc2F)C(=O)C1=O (stereo partly drawn) | MIC | 8 to 16 µg/mL |

For every record below, what is its MIC?
1. CCN1CCN(C(=O)NC(C(=O)N[C@H]2Cc3cccc(C(=O)O)c3OB2O)c2ccc(S(N)(=O)=O)cc2F)C(=O)C1=O (stereo partly drawn)
2. CCN1CCN(C(=O)N[C@@H](C(=O)N[C@H]2Cc3cccc(C(=O)O)c3OB2O)c2ccc(S(N)(=O)=O)c(OC)c2)C(=O)C1=O
3. O=C(O)c1cccc2c1OB(O)[C@@H](NC(=O)C(NC(=O)N1C[C@@H]3CCCN3C(=O)C1=O)c1ccc(O)c(O)c1Cl)C2 (stereo partly drawn)
4. NCCN1CCN(C(=O)N[C@@H](C(=O)N[C@H]2Cc3ccc(F)c(C(=O)O)c3OB2O)c2ccc(O)c(O)c2Cl)C(=O)C1=O
5. NS(=O)(=O)c1ccc(C(NC(=O)N2CCN(CCF)C(=O)C2=O)C(=O)N[C@H]2Cc3cccc(C(=O)O)c3OB2O)c(F)c1 (stereo partly drawn)
6. CC[C@H]1CN(CC)C(=O)C(=O)N1C(=O)NC(C(=O)N[C@H]1Cc2cccc(C(=O)O)c2OB1O)c1ncc(O)cc1F (stereo partly drawn)
7. O=C(O)c1c(F)ccc2c1OB(O)[C@@H](NC(=O)C(NC(=O)N1CCN(CCF)C(=O)C1=O)c1ncc(O)cc1F)C2 (stereo partly drawn)
8. O=C(O)c1cccc2c1OB(O)[C@@H](NC(=O)C(NC(=O)N1CCN(CCF)C(=O)C1=O)c1ccc(O)c(O)c1Cl)C2 (stereo partly drawn)

Response:
1. > 128 µg/mL
2. > 128 µg/mL
3. 8 to 16 µg/mL
4. < 0.25 µg/mL
5. > 128 µg/mL
6. > 128 µg/mL
7. > 128 µg/mL
8. 32 to 64 µg/mL
